# AC50 per record follows
Assayed target: DNA repair protein RAD52 homolog (Homo sapiens)
Sequence (P43351 whole entry): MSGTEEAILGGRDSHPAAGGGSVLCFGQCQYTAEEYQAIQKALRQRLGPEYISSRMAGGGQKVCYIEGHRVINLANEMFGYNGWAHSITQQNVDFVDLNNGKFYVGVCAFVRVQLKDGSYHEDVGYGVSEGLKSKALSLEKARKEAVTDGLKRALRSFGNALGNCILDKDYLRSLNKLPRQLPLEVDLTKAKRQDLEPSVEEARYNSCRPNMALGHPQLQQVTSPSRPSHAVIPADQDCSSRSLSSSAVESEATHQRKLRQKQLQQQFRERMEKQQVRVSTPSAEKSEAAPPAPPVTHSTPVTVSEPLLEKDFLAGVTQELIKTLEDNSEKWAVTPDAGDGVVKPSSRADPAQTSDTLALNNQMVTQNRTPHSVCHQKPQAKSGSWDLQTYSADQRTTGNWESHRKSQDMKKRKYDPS
Assay type: functional, biochemical
The source made the active and inactive calls.

CN(C)CCOC(=O)c1ccc2[nH]c3c(c2c1)CSCC3: 0.792 µM (active)
N=C(N)N/N=C/c1ccc(N(c2ccccc2)c2ccccc2)cc1: 10.8 µM (active)
COc1ccc2cc(CNCCOCCOCCNCc3ccc4cc(OC)ccc4c3)ccc2c1: 2.45 µM (active)

As a next step, examine the compound that follows.
### Prompt Find the recorded AC50 belonging to CCCCCCCCCCOC(=O)Cn1c(COc2ccc(Cl)cc2)[n+](C)c2ccccc21 and report it.
### Response 7.08 µM (active)
